Molecular target: T1, in house made human PD-1-Fc protein (human, biotin-labeled (sites not given))
T1 construct: also called biotin-labeled human PD-1-Fc
T1 sequence (chain, as listed by the source limits assumed): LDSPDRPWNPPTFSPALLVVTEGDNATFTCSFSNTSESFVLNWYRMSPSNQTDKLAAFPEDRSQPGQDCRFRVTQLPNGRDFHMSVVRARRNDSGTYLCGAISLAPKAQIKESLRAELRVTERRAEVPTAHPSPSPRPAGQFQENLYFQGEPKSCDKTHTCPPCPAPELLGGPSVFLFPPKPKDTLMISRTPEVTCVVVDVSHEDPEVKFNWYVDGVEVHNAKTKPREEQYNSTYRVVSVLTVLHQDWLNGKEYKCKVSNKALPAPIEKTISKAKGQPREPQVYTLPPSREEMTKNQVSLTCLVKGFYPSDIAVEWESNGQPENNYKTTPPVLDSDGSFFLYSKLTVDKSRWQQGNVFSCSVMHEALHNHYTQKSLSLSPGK
Test: cell-based blocking FACS: antibody pre-mixed with biotin-labeled human PD-1-Fc, added to GS-C2/PD-L1 cells expressing human PD-L1 (blocked ligand); unit from the axis 'Con of mAb, nM.'

| Binder | IC50 |
| --- | --- |
| Pembrolizumab (antibody, V domains shown) VH: QVQLVQSGVEVKKPGASVKVSCKASGYTFTNYYMYWVRQAPGQGLEWMGGINPSNGGTNFNEKFKNRVTLTTDSSTTTAYMELKSLQFDDTAVYYCARRDYRFDMGFDYWGQGTTVTVSS VL: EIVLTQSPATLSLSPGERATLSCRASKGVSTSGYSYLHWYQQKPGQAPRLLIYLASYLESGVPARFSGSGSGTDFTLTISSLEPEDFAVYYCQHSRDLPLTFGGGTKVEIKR | 0.32 nM |
| mouse anti-PD-1 monoclonal antibody E1A9C8A7 (antibody, V domains shown, Hybridoma-derived mouse mAb purified on Protein A; also called Mouse E1A9C8A7) VH: QVQLQQSGAEVVRPGVSVRISCKGSGYTFSDYVMHWMKQSHGESLEWIGVISTYHIPAVYNQKFKGKATMTVDKSSSTVYLELARLTSEDSAIYYCAREVYGDSYYFDVWGAGTTVTVSS VL: DVLMTQIPLSLPVSLGDQVSISCRSSQSIVHSNGNTYLEWYLQKPGQSPKLLIYKVSNRFSGVPDRFSGSGSGTDFTLKISRVEAEDLGVYYCFQGSHVPYTFGGGTKLEIK | 0.782 nM |
| mouse anti-PD-1 monoclonal antibody E1G5D1H1 (antibody, V domains shown, Hybridoma-derived mouse mAb; also called EIG5D1H1; E1G5DIH1) VH: EVQLVESGGGLVKPGGSLKLSCAASGFTFSDFYMYWVRQTPEKRLEWVATISNSGTQTYYLDSVKGRFTISRDNAKNNLYLQMSSLKSEDTAMYYCARDYYRYDSWYFDVWGAGTTVTVSS VL: DIVLTQSPASLAVSQGQRATISCRASESVDFYGTSLMQWFQLKPGQPPKLLIYAASNVESGVPARFSGSGSGTNFSLNIHPVEEDDIAMYFCQQSRKVPWTFGGGTNLEIK | 0.496 nM |
| mouse anti-PD-1 monoclonal antibody E2G4E10B7 (antibody, V domains shown, Hybridoma-derived mouse mAb; also called Mouse E2G4E10B7) VH: QVQLQQSGAELVRPGVSVKISCKGSGYTFTDYVMHWVRQSHAKSLEWIGVISTHFGDGVYNQKFKGKATMTVDKSSSTAYMELARLTSEDSAIYYCAREVYGDSWYFDVWGAGTTVTVSS VL: DVLMTQTPLSLPVSLGDQASISCRSSQSLVHSDGNTYLEWYLQKPGQSPKLLIYKVSNRFSGVPDRFSGSGSGTDFTLKISRLEAEDLGVYYCFQGSHVPYTFGGGTKLEIK | 0.484 nM |
